Quick reference for Ki among some binders
# testSystem: T1, human melanocortin receptor subtype 3 (hMC3-R) (human, UniProt P41968 1-323)
# T1 construct: whole, on cells; membranes of CHO-K1 cells
# T1 sequence (P41968 whole entry): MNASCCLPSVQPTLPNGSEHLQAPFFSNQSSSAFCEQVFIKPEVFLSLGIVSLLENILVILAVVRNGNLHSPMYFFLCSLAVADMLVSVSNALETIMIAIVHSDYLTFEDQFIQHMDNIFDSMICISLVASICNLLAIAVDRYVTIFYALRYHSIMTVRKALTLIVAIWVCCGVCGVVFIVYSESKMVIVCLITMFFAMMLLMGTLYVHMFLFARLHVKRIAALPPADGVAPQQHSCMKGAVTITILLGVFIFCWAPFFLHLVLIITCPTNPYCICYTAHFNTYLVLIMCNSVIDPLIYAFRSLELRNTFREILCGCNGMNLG
# assayRemarks: [125I]-NDP-α-MSH competition, membranes
Bridge positions count the residues as written; N and C are the ends. Square brackets hold non-standard residues; d marks the D form. 1Nal = N[C@@H](Cc1cccc2ccccc12)C(=O)O; 2Nal = N[C@@H](Cc1ccc2ccccc2c1)C(=O)O; d2Nal = N[C@H](Cc1ccc2ccccc2c1)C(=O)O; βAla = NCCC(=O)O
readout: Ki (nM)

1) Ac-CEH[d2Nal]R[2Nal]ACPPKD[βAla]YGRRKRRQRRR-NH2 (disulfide 1-8) [Ac-c(Cys-Glu-His-D-2-Nal-Arg-2-Nal-Ala-Cys)-Pro-Pro-Lys-Asp-β-[…]NH2]    1.12
2) CEHXRXACPPKDXYGRKKRRQRRR (N-terminal Ac; D-2-Nal at 4; 2-Nal at 6; β-Ala at 13; disulfide Cys1-Cys8; C-terminal NH2)    0.59
3) Ac-CEH[d2Nal]R[1Nal]ACPPKD[βAla]RRRRRQRRR-NH2 (disulfide 1-8) [Ac-c(Cys-Glu-His-D-2-Nal-Arg-1-Nal-Ala-Cys)-Pro-Pro-Lys-Asp-β-[…]NH2]    6.56
